system: Fibroblast; assay: Multiplex assay against human fibroblast; type: toxicity, cell-based; conditions: 12 h, 1 µM, compound concentration 1 uM, number of replicates 2
MEASUREMENT_NAME: Population Mitochondria Different-Phenotype (%)
Param answer (str): number followed by unit.

smiles_repr=COc1cc(Nc2cnc(C#N)c(O[C@H](C)CN(C)C)n2)ncc1-c1cnn(C)c1 observed=1%

Q: Request the reported Population Mitochondria Different-Phenotype (%) associated with COc1cc(Br)c(S(=O)(=O)Nc2ccc(C(F)(F)F)c(O[C@@H]3CCN(C)C3)c2)cc1OC
A: 0%

Q: Likewise for COc1ncc(-c2cc(-c3ncc(CN4C[C@@H](C)O[C@@H](C)C4)o3)c3cn[nH]c3c2)cc1NS(C)(=O)=O ?
A: 0%

Q: Likewise for Cc1ccc2c(c1CCC(=O)O)CC[C@@H](NS(=O)(=O)c1ccc(Cl)cc1)C2 ?
A: 1%

Q: Likewise for CCCCOc1c(C(=O)c2c(F)cc(C)cc2F)c[nH]c2nncc1-2 ?
A: 0%

Q: Likewise for CN1CCCN(C(=O)c2cccc(-c3ccc(/C=C4/C(=O)Nc5ccc(Cl)cc54)o3)c2)CC1 ?
A: 2%

Q: Likewise for CCCNc1ccc2ncc(-c3ccncc3)n2n1 ?
A: 0%

Q: Likewise for Cc1onc(-c2ccccc2Cl)c1C(=O)N(C)c1ccc(Cl)cc1 ?
A: 0%

Q: Likewise for C=CC(=O)Nc1ccc2[nH]c(=O)n(C3CCN(Cc4ccc(-c5ccc6c(c5)NC(=O)CO6)cc4)CC3)c2c1 ?
A: 3%

Q: Likewise for CN(C)[C@H]1CC[C@H](Nc2ncc3ncnc(Nc4ccc(F)c(Cl)c4)c3n2)CC1 ?
A: 1%

Q: Likewise for Cc1ccc(C(=O)Nc2cc(N3CCN(C)CC3)cc(C(F)(F)F)c2)cc1-n1cc(-c2cnn(C)c2C)nn1.Cl ?
A: 2%

----------
tested on: Fibroblast; experiment: Multiplex assay against human fibroblast; assay type: toxicity, cell-based; conditions: 24 h, 10 µM, compound concentration 10 uM, number of replicates 2
MEASUREMENT_NAME: Population Healthy Nuclei (%)
API: value field is a number in %; no unit string.

Worked cases, answers included:
smiles_repr=CN1CCc2cc(Cl)c(O)cc2[C@@H](c2ccccc2)C1.Cl observed=76
smiles_repr=CN(C)C/C=C/C(=O)Nc1ccc(C(=O)Nc2cccc(Nc3ncc(Cl)c(-c4c[nH]c5ccccc45)n3)c2)cc1 observed=31

Q: Request the reported Population Healthy Nuclei (%) associated with CN(C)CCN(Cc1ccc(-c2ccc(CNCCc3ccccc3)cc2)cc1)C(=O)CCC1CCCC1.Cl.Cl
A: 1

Q: Likewise for CC1(C)C(=O)N([C@H]2CCc3c(O)cccc32)c2nc(Nc3cccc(CN4CCCC4)c3)ncc21 ?
A: 16

----------
test system: HEK-293T; assay: Multiplex assay against HEK293T; type: toxicity, cell-based; details: human, 24 h, 10 µM, compound concentration 10 uM, number of replicates 2
MEASUREMENT_NAME: Population Mitochondria Different-Phenotype (%)
API: value field is a number in %; no unit string.

Worked cases, answers included:
compound=CCCCOc1c(C(=O)c2c(F)cc(C)cc2F)c[nH]c2nncc1-2 observed=5
compound="Cc1c(C(=O)Nc2ccc(N3C[C@@H](C)O[C@@H](C)C3)nc2)cccc1-c1ccc(OC(F)(F)F)cc1 [SONIDEGIB]" observed=5
compound=CN1CCc2cc(Cl)c(O)cc2[C@@H](c2ccccc2)C1.Cl observed=3

For the next question, use this compound.
Q: Request the reported Population Mitochondria Different-Phenotype (%) associated with Cn1ncc(NC(=O)c2nc(-c3c(F)cccc3F)sc2N)c1N1CC[C@@H](N)[C@H](F)CC1
A: 16

----------
system: HEK-293T; test: Multiplex assay against HEK293T; format: toxicity, cell-based; conditions: human, 24 h, 1 µM, compound concentration 1 uM, number of replicates 2
MEASUREMENT_NAME: Population Tubulin-Different-Phenotype (%)
API: value field is a number in %; no unit string.

Worked cases, answers included:
molecule=Cc1onc(-c2ccccc2Cl)c1C(=O)N(C)c1ccc(Cl)cc1 observed=22
molecule=CC1=C(C)C(=O)C(C(C)(C)CC(=O)N(CCCCSC[C@H]2O[C@@H](n3cnc4c(N)ncnc43)[C@H](O)[C@@H]2O)Cc2cccc(-c3ccc(Cl)cc3)c2)=C(C)C1=O observed=50
molecule="CC(C)S(=O)(=O)c1ccccc1Nc1nc(N[C@@H]2CCCN(CCCCCCCNC(=O)COc3cccc4c3C(=O)N(C3CCC(=O)N(C)C3=O)C4=O)C2)ncc1Cl (some centres undefined)" observed=40

For the next question, use this molecule.
Q: Request the reported Population Tubulin-Different-Phenotype (%) associated with COc1cccc(Cn2cc(C(=O)Nc3ccc(C)c(S(=O)(=O)N4CCOCC4)c3)c(-c3ccc(C)cc3)n2)c1
A: 59

----------
tested on: Fibroblast; assay: Multiplex assay against human fibroblast; assay type: toxicity, cell-based; details: 24 h, 10 µM, compound concentration 10 uM, number of replicates 2
MEASUREMENT_NAME: Population Fragmented Nuclei (%)

Worked cases, answers included:
compound=Cc1cc(NC(=O)c2cccc(NC(=O)/C=C/CN(C)C)c2)ccc1Nc1nccc(-c2cccnc2)n1 observed=11%
compound=COc1cccc(Cn2cc(C(=O)Nc3ccc(C)c(S(=O)(=O)N4CCOCC4)c3)c(-c3ccc(C)cc3)n2)c1 observed=9%
compound=CS(=O)(=O)c1ccc(C(=O)Nc2cc(F)cc(COc3ccc(Br)cc3CN3CC[C@H](O)C3)c2)c(Cl)c1.O=CO observed=18%

For the next question, use this compound.
Q: Request the reported Population Fragmented Nuclei (%) associated with O=C(NCc1ccc(F)cc1)N1CCN2C(=O)OC(c3ccccc3)(c3ccccc3)C2C1 (centres undefined)
A: 12%

----------
system: HEK-293T; assay: Multiplex assay against HEK293T; type: toxicity, cell-based; details: human, 12 h, 10 µM, compound concentration 10 uM, number of replicates 2
Lab note: anything with Population Healthy Nuclei (%) at or over 80% counts as rule met; the rest go in rule not met.

Some solved cases for reference:
compound=COc1nc2ccc([C@@](O)(c3ccc(Cl)cc3)c3cncn3C)cc2c(Cl)c1Cc1ccc(-n2cccn2)cc1 class_label="rule met"
compound="Cc1cc(C2CCCNC2)ccc1Nc1ncc(Br)c(NCc2cccc3c2C(C)(C)C(=O)N3)n1 (configuration not stated)" class_label="rule met"
compound=CN(C)CC#Cc1ccc2[nH]c3c(c2c1)-c1nc(N)ncc1CCC3 class_label="rule not met"
compound=CCCN(CCc1cccs1)[C@H]1CCc2c(O)cccc2C1 class_label="rule met"
compound=CS(=O)(=O)c1ccc(C(=O)Nc2cccc(COc3ccc(Br)cc3CN3CC[C@H](O)C3)c2)cc1.O=CO class_label="rule met"

Now for another entry.
Q: Please tell me: is the compound COc1cccc(Cn2cc(C(=O)Nc3ccc(C)c(S(=O)(=O)N4CCOCC4)c3)c(-c3ccc(C)cc3)n2)c1 at or over 80% in terms of Population Healthy Nuclei (%)?
A: rule met

----------
test system: HEK-293T; assay: Multiplex assay against HEK293T; assay type: toxicity, cell-based; details: human, 48 h, 1 µM, compound concentration 1 uM, number of replicates 2
Recorded measurements of Population Hoechst High Intensity Objects (%), one per entry
API: value field is a number in %; no unit string.

Worked cases, answers included:
smiles_repr=Cc1onc(-c2ccccc2Cl)c1C(=O)N(C)c1ccc(Cl)cc1 observed=8
smiles_repr=CN(C)CCN(Cc1ccc(-c2ccc(CNCCc3ccccc3)cc2)cc1)C(=O)CCC1CCCC1.Cl.Cl observed=8

For the next question, use this compound.
Q: Request the reported Population Hoechst High Intensity Objects (%) associated with CCn1ccc(Nc2ncc3c(n2)-c2c(nn(C)c2-c2ccc(-c4cnn(C)c4)cc2Cl)CC3)n1
A: 20

----------
Recorded measurements of Population Mitotic Cells (%), one per entry
test system: HEK-293T; assay: Multiplex assay against HEK293T; assay type: toxicity, cell-based; details: human, 48 h, 10 µM, compound concentration 10 uM, number of replicates 2
API: value field is a number in %; no unit string.

smiles_repr=Cn1ncc(NC(=O)c2nc(-c3c(F)cccc3F)sc2N)c1N1CC[C@@H](N)[C@H](F)CC1 measurement_name="Population Mitotic Cells (%)" observed=55
smiles_repr=CS(=O)(=O)c1ccc(NC(=O)c2cccc(COc3ccc(Br)cc3CNCCO)c2)c(Cl)c1.O=CO measurement_name="Population Mitotic Cells (%)" observed=21
smiles_repr=COCCN1CCN(CCn2ccc(Nc3ncc4c(n3)-c3c(nn(C)c3-c3ccccc3)C[C@H]4C)n2)CC1 measurement_name="Population Mitotic Cells (%)" observed=33

For the next question, use this compound.
Q: Quick check: Population Mitotic Cells (%) on HEK-293T, item CCN1CCN(Cc2ccc(C(=O)Nc3ccc(C)c(Oc4ccc5c(c4)CC(=O)N5)c3)cc2C(F)(F)F)CC1.Cl.Cl ?
A: 25

----------
Recorded measurements of Population Apoptotic (%), one per entry
system: HEK-293T; assay: Multiplex assay against HEK293T; type: toxicity, cell-based; settings: human, 24 h, 10 µM, compound concentration 10 uM, number of replicates 2
API: value field is a number in %; no unit string.

compound="C[C@@H](OC[C@@]1(c2ccccc2)CC[C@]2(CCC(=O)N2)CN1)c1cc(C(F)(F)F)cc(C(F)(F)F)c1 [ROLAPITANT]" measurement_name="Population Apoptotic (%)" unit_descriptor=% observed=61
compound=CS(=O)(=O)c1ccc(C(=O)Nc2cc(F)cc(COc3ccc(Br)cc3CN3CC[C@H](O)C3)c2)c(Cl)c1.O=CO measurement_name="Population Apoptotic (%)" unit_descriptor=% observed=70
compound="CC(C)S(=O)(=O)c1ccccc1Nc1nc(N[C@@H]2CCCN(CCCCCCCNC(=O)COc3cccc4c3C(=O)N(C3CCC(=O)N(C)C3=O)C4=O)C2)ncc1Cl (stereo not given in full)" measurement_name="Population Apoptotic (%)" unit_descriptor=% observed=82

For the next question, use this compound.
Q: Request the reported Population Apoptotic (%) associated with CN(C)CCN(Cc1ccc(-c2ccc(CNCCc3ccccc3)cc2)cc1)C(=O)CCC1CCCC1.Cl.Cl
A: 73
